test system: 301 cancer cell lines from different tumor types (OncoPanel; HD Biosciences); test: 2D cell viability inhibition assay (CellTiter-Glo) in cancer cell line panel; format: cell-based; conditions: Homo sapiens, NCI-H2228, NCIH2228 cell line

CPD_SMILES	IC50 / nM
CC(C)c1ccc(N(C)c2ccc3c(c2)OCC[C@H]3CNc2cnccc2C(=O)O)cc1	179

* * *

test system: 301 cancer cell lines from different tumor types (OncoPanel; HD Biosciences); experiment: 2D cell viability inhibition assay (CellTiter-Glo) in cancer cell line panel; format: cell-based; conditions: Homo sapiens, SNU-16, SNU16 cell line
METRIC_NAME: EC50 (nM)

CPD_SMILES	METRIC_NAME	ENDPOINT_UNIT	NUMBER
CC(C)c1ccc(N(C)c2ccc3c(c2)OCC[C@H]3CNc2cnccc2C(=O)O)cc1	EC50	nM	3.69

* * *

test system: 301 cancer cell lines from different tumor types (OncoPanel; HD Biosciences); experiment: 2D cell viability inhibition assay (CellTiter-Glo) in cancer cell line panel; format: cell-based; settings: Homo sapiens, MIA PaCa-2, MIAPACA2 cell line

COMPOUND	EC50 (nM)
CC(C)c1ccc(N(C)c2ccc3c(c2)OCC[C@H]3CNc2cnccc2C(=O)O)cc1 [Compound 1]	5.28

* * *

tested on: 301 cancer cell lines from different tumor types (OncoPanel; HD Biosciences); test: 2D cell viability inhibition assay (CellTiter-Glo) in cancer cell line panel; assay type: cell-based; details: Homo sapiens, CHL-1, CHL1 cell line

COMPOUND	IC50
CC(C)c1ccc(N(C)c2ccc3c(c2)OCC[C@H]3CNc2cnccc2C(=O)O)cc1 [Compound 1]	6.08 nM

* * *

Tested on: 301 cancer cell lines from different tumor types (OncoPanel; HD Biosciences)
Experiment: 2D cell viability inhibition assay (CellTiter-Glo) in cancer cell line panel
Type: cell-based
Conditions: Homo sapiens, HuH-1, HUH1 cell line
Experimental: In a larger screening study, compound 1 was evaluated across a broad cancer cell line panel (OncoPanel; HD Biosciences) composed of 301 cancer cell lines from different tumor types. 2D cell viability inhibition assays were performed in multiwell plates seeded with cells from the panel. […] Cultures were incubated for 168 hours after which the number of viable cells in each test well was assessed using the CellTiter-Glo® Luminescent Cell Viability Assay. […]
pEC50: −log10 of the molar value.
METRIC_NAME: pEC50

CPD_SMILES	METRIC_NAME	NUMBER
CC(C)c1ccc(N(C)c2ccc3c(c2)OCC[C@H]3CNc2cnccc2C(=O)O)cc1	pEC50	7.98

* * *

tested on: 301 cancer cell lines from different tumor types (OncoPanel; HD Biosciences); assay: 2D cell viability inhibition assay (CellTiter-Glo) in cancer cell line panel; type: cell-based; conditions: Homo sapiens, MCF7, MCF7 cell line

CPD_SMILES	IC50 [nM]
CC(C)c1ccc(N(C)c2ccc3c(c2)OCC[C@H]3CNc2cnccc2C(=O)O)cc1	435

* * *

test system: 301 cancer cell lines from different tumor types (OncoPanel; HD Biosciences); assay: 2D cell viability inhibition assay (CellTiter-Glo) in cancer cell line panel; format: cell-based; settings: Homo sapiens, HCC1599, HCC1599 cell line
METRIC_NAME: EC50

CPD_SMILES	METRIC_NAME	RESULT
CC(C)c1ccc(N(C)c2ccc3c(c2)OCC[C@H]3CNc2cnccc2C(=O)O)cc1	EC50	3.82 nM

* * *

test system: 301 cancer cell lines from different tumor types (OncoPanel; HD Biosciences); assay: 2D cell viability inhibition assay (CellTiter-Glo) in cancer cell line panel; assay type: cell-based; conditions: Homo sapiens, NCI-H716, NCIH716 cell line

COMPOUND	ENDPOINT_UNIT	EC50
CC(C)c1ccc(N(C)c2ccc3c(c2)OCC[C@H]3CNc2cnccc2C(=O)O)cc1 [Compound 1]	nM	5.77
